system: K24384-001-R-PDC complex spheroids, viability; experiment: Anticancer human tumor K24384-001-R-PDC patient-derived pancreatic adenocarcinoma cell line growth inhibition [GQUAD]; conditions: second compound 3.16 µM; first compound 0.00316 µM; stronger effect = lower value
Observed Property: viability, T/C (%)
Form entry: value (%) — number only.

[Q] Any idea what its viability, T/C is? The molecule is Cn1ncnc1[C@H]1c2n[nH]c(=O)c3cc(F)cc(c23)N[C@@H]1c1ccc(F)cc1 + Cc1[nH]c2ccc(F)cc2c1-c1nc2c3cccnc3c3ncccc3c2[nH]1
[A] 92.9

[Q] Can you handle CCc1c2c(nc3ccc(O)cc13)-c1cc3c(c(=O)n1C2)COC(=O)[C@]3(O)CC + Cc1[nH]c2ccc(F)cc2c1-c1nc2c3cccnc3c3ncccc3c2[nH]1 next?
[A] 55.5

[Q] Can you handle Cc1[nH]c2ccccc2c1CCNCc1ccc(/C=C/C(=O)NO)cc1 + Cc1cnc(CNC(=O)c2c(=O)c3ccc(N4CCCN(C)CC4)nc3n3c2sc2ccccc23)cn1 next?
[A] 33.3

[Q] Can you handle CC[C@@]1(O)C(=O)OCc2c1cc1n(c2=O)Cc2cc3c(CN(C)C)c(O)ccc3nc2-1 + Cc1cnc(CNC(=O)c2c(=O)c3ccc(N4CCCN(C)CC4)nc3n3c2sc2ccccc23)cn1 next?
[A] 39.1

[Q] Can you handle Cn1ncnc1[C@H]1c2n[nH]c(=O)c3cc(F)cc(c23)N[C@@H]1c1ccc(F)cc1 + Cc1cnc(CNC(=O)c2c(=O)c3ccc(N4CCCN(C)CC4)nc3n3c2sc2ccccc23)cn1 next?
[A] 45.2

[Q] Can you handle Cc1[nH]c2ccccc2c1CCNCc1ccc(/C=C/C(=O)NO)cc1 + Cc1[nH]c2ccc(F)cc2c1-c1nc2c3cccnc3c3ncccc3c2[nH]1 next?
[A] 87.7

[Q] Can you handle CC[C@@]1(O)C(=O)OCc2c1cc1n(c2=O)Cc2cc3c(CN(C)C)c(O)ccc3nc2-1 + CN(C)c1ccc(Nc2c3ccc(NC(=O)CCN4CCCC4)cc3nc3cc(NC(=O)CCN4CCCC4)ccc23)cc1 next?
[A] 90.7

---

Tested on: K24384-001-R-PDC complex spheroids, viability
Test: Anticancer human tumor K24384-001-R-PDC cell line growth inhibition [GQUAD];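 also: spheroids exposed to compounds for seven days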
Details: second compound 0.316 µM; first compound 0.00999 µM; stronger effect = lower value
From the text: DNA G-quadruplex Stabilizer Agents in Combinations in Complex Spheroids A high-throughput screen of multi-cell type tumor spheroids was designed to identify active combinations of DNA G-quadruplex stabilizer agents and targeted small molecules. […] Compounds. […] If the clinical Cmax for an agent had not been determined, the highest concentration tested was 10 microM. […]
Give measured viability, T/C for each item. Keep answers brief.
Form entry: value (%) — number only.

[Q] Any idea what its viability, T/C is? The compound is Cn1ncnc1[C@H]1c2n[nH]c(=O)c3cc(F)cc(c23)N[C@@H]1c1ccc(F)cc1 + CN(C)c1ccc(Nc2c3ccc(NC(=O)CCN4CCCC4)cc3nc3cc(NC(=O)CCN4CCCC4)ccc23)cc1
[A] 105

[Q] Can you handle CCc1c2c(nc3ccc(O)cc13)-c1cc3c(c(=O)n1C2)COC(=O)[C@]3(O)CC + CN(C)c1ccc(Nc2c3ccc(NC(=O)CCN4CCCC4)cc3nc3cc(NC(=O)CCN4CCCC4)ccc23)cc1 next?
[A] 35.2

[Q] Can you handle CC[C@@]1(O)C(=O)OCc2c1cc1n(c2=O)Cc2cc3c(CN(C)C)c(O)ccc3nc2-1 + Cc1[nH]c2ccc(F)cc2c1-c1nc2c3cccnc3c3ncccc3c2[nH]1 next?
[A] 83.1
